# Tested on: Echinochloa oryzicola Vasing
# ASSAY COMMENT: Herbicidal effects in paddy field soil treatment (Test Example 1)
# Type: in vivo
# Set-up: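 grade 0 to 5 of growth suppression where 5 is 90% or more and 0 below 10%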
# CONDITIONS: paddy field soil treatment; 1000 g of the active ingredient per hectare; wettable powder added dropwise on water surface; 21st day after treatment
REPORTED PROPERTY: Herbicidal effects index, Echinochloa oryzicola Vasing
Give the figure by itself; no unit, no explanation.

Example entries and their recorded answers appear below.
Cc1ccc(-n2c(=O)c(C(=O)C3=C(O)CCCC3=O)nc3ccccc32)cc1Cl    5
COc1ccc(-n2c(=O)c(C(=O)C3=C(O)CCCC3=O)nc3cc(Cl)ccc32)cc1    5
O=C1CCCC(O)=C1C(=O)c1nc2ccccc2n(-c2ccccc2F)c1=O    5

Please report the measured Herbicidal effects index, Echinochloa oryzicola Vasing for Cc1ccnc(-n2c(=O)c(C(=O)C3=C(O)CCCC3=O)nc3ccccc32)c1
5

Please report the measured Herbicidal effects index, Echinochloa oryzicola Vasing for CSc1ccc(-n2c(=O)c(C(=O)C3=C(O)CCCC3=O)nc3ccccc32)cc1
5

Please report the measured Herbicidal effects index, Echinochloa oryzicola Vasing for COc1cc(-n2c(=O)c(C(=O)C3=C(O)CCCC3=O)nc3ccccc32)cc(OC)c1OC
4

Please report the measured Herbicidal effects index, Echinochloa oryzicola Vasing for CSCn1c(=O)c(C(=O)C2=C(O)CCCC2=O)nc2ccccc21
5

Please report the measured Herbicidal effects index, Echinochloa oryzicola Vasing for COCC(C)n1c(=O)c(C(=O)C2=C(O)CCCC2=O)nc2cccnc21 (stereo not drawn)
5

Please report the measured Herbicidal effects index, Echinochloa oryzicola Vasing for Cc1cnc(-n2c(=O)c(C(=O)C3=C(O)CCCC3=O)nc3ccccc32)cn1
5

Please report the measured Herbicidal effects index, Echinochloa oryzicola Vasing for COc1ccc(-n2c(=O)c(C(=O)C3=C(O)CCCC3=O)nc3ccccc32)nc1
4

Please report the measured Herbicidal effects index, Echinochloa oryzicola Vasing for C[S+]([O-])CCOCn1c(=O)c(C(=O)C2=C(O)CCCC2=O)nc2ccccc21 (stereo not drawn)
4

Please report the measured Herbicidal effects index, Echinochloa oryzicola Vasing for COCCCn1c(=O)c(C(=O)C2=C(O)CCCC2=O)nc2ccccc21
5

Please report the measured Herbicidal effects index, Echinochloa oryzicola Vasing for COc1ccc(-n2c(=O)c(C(=O)C3=C(O)CCCC3=O)nc3c(F)cccc32)cn1
4

Please report the measured Herbicidal effects index, Echinochloa oryzicola Vasing for COCCn1c(=O)c(C(=O)C2=C(O)CCCC2=O)nc2cccnc21
5

Please report the measured Herbicidal effects index, Echinochloa oryzicola Vasing for COc1ccc2nc(C(=O)C3=C(O)CCCC3=O)c(=O)n(C)c2c1
5

Please report the measured Herbicidal effects index, Echinochloa oryzicola Vasing for CCc1ccc(-n2c(=O)c(C(=O)C3=C(O)CCCC3=O)nc3cccnc32)cc1
5

Please report the measured Herbicidal effects index, Echinochloa oryzicola Vasing for Cc1cccc2c1nc(C(=O)C1=C(O)CCCC1=O)c(=O)n2-c1ccccc1
5

Please report the measured Herbicidal effects index, Echinochloa oryzicola Vasing for O=C1CCCC(O)=C1C(=O)c1nc2ccccc2n(-c2ccc(C(F)(F)F)cc2)c1=O
5

* * *

The following compounds are listed with their measured Herbicidal effects index, Echinochloa oryzicola Vasing values.
# Test system: Echinochloa oryzicola Vasing
# ASSAY COMMENT: Herbicidal effects in paddy field soil treatment (Test Example 1)
# Type: in vivo
# Design: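 grade 0 to 5 of growth suppression where 5 is 90% or more and 0 below 10%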
# CONDITIONS: paddy field soil treatment; 1000 g of the active ingredient per hectare; wettable powder added dropwise on water surface; 21st day after treatment
Give the figure by itself; no unit, no explanation.

Example entries and their recorded answers appear below.
O=C1CCCC(O)=C1C(=O)c1nc2ccccc2n(CC2CCCO2)c1=O (stereo not drawn)    4
C=CCOc1ccc(-n2c(=O)c(C(=O)C3=C(O)CCCC3=O)nc3ccccc32)cc1    5
COc1cc(OC)cc(-n2c(=O)c(C(=O)C3=C(O)CCCC3=O)nc3ccccc32)c1    5
COc1c(Cl)cc(-n2c(=O)c(C(=O)C3=C(O)CCCC3=O)nc3ccccc32)cc1Cl    4
CCOc1ccc(-n2c(=O)c(C(=O)C3=C(O)CCCC3=O)nc3ccccc32)cc1    5

Write Herbicidal effects index, Echinochloa oryzicola Vasing of CC1CC(C)(C)C(O)=C(C(=O)c2nc3ccccc3n(-c3ccc4c(c3)OCCO4)c2=O)C1=O (stereo not drawn) ; system used: Echinochloa oryzicola Vasing
4

Write Herbicidal effects index, Echinochloa oryzicola Vasing of C#CCn1c(=O)c(C(=O)C2=C(O)CCCC2=O)nc2ccccc21 ; system used: Echinochloa oryzicola Vasing
5

Write Herbicidal effects index, Echinochloa oryzicola Vasing of COCCOCn1c(=O)c(C(=O)C2=C(O)CCCC2=O)nc2ccccc21 ; system used: Echinochloa oryzicola Vasing
5

Write Herbicidal effects index, Echinochloa oryzicola Vasing of O=C1CCCC(O)=C1C(=O)c1nc2ccc(F)cc2n(-c2ccc3c(c2)OCO3)c1=O ; system used: Echinochloa oryzicola Vasing
5
